Where do these numbers come from? They come from PubChem BioAssay AID1845212.

- System: NCI-H719 tumor spheroids, viability
- experiment_description: Anticancer human tumor NCI-H719 cell line growth inhibition;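 note: spheroids exposed to compounds for seven days; percent viability relative to DMSO vehicle control as 100%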
- experimental_setup: second compound 1 µM; first compound 0.0316 µM; active compounds read low; spheroids with HUVEC and MSC
Answer each item with its documented viability, T/C.
One number for each entry, in %.

// solved cases for viability, T/C follow
[2H]c1nc(C)nc([2H])c1-c1cc(NC[C@@H](C)c2cccc3c(C(=O)NC)ccnc23)ncn1 + Cn1nnc2c(C(N)=O)ncn2c1=O : 93.8
CC1COCCN1c1cc(-c2ccnn2C)c2ccnc(-c3ccn[nH]3)c2n1 (stereo unspecified) + Cn1nnc2c(C(N)=O)ncn2c1=O : 60.4

Give viability, T/C for all compounds that follow.
1. CC(C)n1c(=O)n(C)c2cnc3cc(F)c(-c4ccc(OCCCN5CCCCC5)nc4)cc3c21 + Cn1nnc2c(C(N)=O)ncn2c1=O
2. Cc1cc(C)c(CNC(=O)c2cc(-c3ccc(CN4CCOCC4)cc3)cc3c2cnn3C2CCCC2)c(=O)[nH]1 + Cn1nnc2c(C(N)=O)ncn2c1=O
3. COc1ccc([C@@H](O)c2cc(-c3ncnc4cc(N5CCOCC5)ccc34)c(F)cc2Cl)nn1 + Cn1nnc2c(C(N)=O)ncn2c1=O
4. COc1cc(C)[nH]c(=O)c1CN1CCc2c(Cl)cc(C(OC)C3COC3)c(Cl)c2C1=O (stereo unspecified) + Cn1nnc2c(C(N)=O)ncn2c1=O

OUTPUT:
94.3
96.9
80.1
101

###

- Test system: NCI-H719 tumor spheroids, viability
- experiment_description: Anticancer human tumor NCI-H719 cell line growth inhibition;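 note: spheroids exposed to compounds for seven days; percent viability relative to DMSO vehicle control as 100%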
- experimental_setup: second compound 10 µM; first compound 1 µM; active compounds read low; spheroids with HUVEC and MSC
- Description: Multicellular complex tumor spheroid response to DNA repair inhibitors in combination with DNA-damaging drugs This study explores the anticancer activities of DNA-damaging drugs and inhibitors of DNA damage repair, both as single agents and in combinations. […] Twenty-six patient-derived or established malignant cell lines were evaluated representing sarcoma, melanoma, small cell lung cancer (SCLC), non-small cell lung cancer (NSCLC), as well as bladder, ovarian and pancreatic cancers. […]
Answer each item with its documented viability, T/C.
One number for each entry, in %.

// solved cases for viability, T/C follow
CC1COCCN1c1cc(-c2ccnn2C)c2ccnc(-c3ccn[nH]3)c2n1 (stereo unspecified) + Cn1nnc2c(C(N)=O)ncn2c1=O : 9.97
CC(C)n1c(=O)n(C)c2cnc3cc(F)c(-c4ccc(OCCCN5CCCCC5)nc4)cc3c21 + Cn1nnc2c(C(N)=O)ncn2c1=O : 89.2
[2H]c1nc(C)nc([2H])c1-c1cc(NC[C@@H](C)c2cccc3c(C(=O)NC)ccnc23)ncn1 + Cn1nnc2c(C(N)=O)ncn2c1=O : 96.8
COc1cc(C)[nH]c(=O)c1CN1CCc2c(Cl)cc(C(OC)C3COC3)c(Cl)c2C1=O (stereo unspecified) + Cn1nnc2c(C(N)=O)ncn2c1=O : 121
COc1ccc([C@@H](O)c2cc(-c3ncnc4cc(N5CCOCC5)ccc34)c(F)cc2Cl)nn1 + Cn1nnc2c(C(N)=O)ncn2c1=O : 50.8

Attention now shifts to the item below.
INPUT: Retrieve viability, T/C measured for Cc1cc(C)c(CNC(=O)c2cc(-c3ccc(CN4CCOCC4)cc3)cc3c2cnn3C2CCCC2)c(=O)[nH]1 + Cn1nnc2c(C(N)=O)ncn2c1=O and print it.
OUTPUT: 110
